- measurement.context: 298.15 K; 101.33 kPa; Liquid; Vibrating tube method
Lab note: anything with mass density below 800 kg/m3 is marked condition met; values at 800 kg/m3 or higher are marked condition not met.

chemical.smiles | class.label
CCCCCCC | condition met

Ask | Report whether reported mass density is lower than 800 kg/m3 (strictly) for OCC(F)(F)F
Reply | condition not met

Ask | Report whether reported mass density is lower than 800 kg/m3 (strictly) for C1CCCCC1
Reply | condition met
